- Test system: HeLa
- protocolDetails: Cytotoxicity against Homo sapiens (human) HeLa cells assessed as cell viability at 10 uM after 72 hr by MTT assay
- Assay type: functional
- details: read-out: Activity
We begin with a simple list: items and their reported viability at 10 µM.
Report as a plain number; the unit % is understood.

Study these solved cases before continuing.
smilesRecord | resultType | reported
Fc1ccc(-n2cc(Cn3c4ccccc4c4nc5ccccc5nc43)nn2)c(F)c1 | viability at 10 µM | 80.7
Fc1ccc2c(c1)c1nc3ccccc3nc1n2Cc1cn(-c2ccccc2Br)nn1 | viability at 10 µM | 89.4
Clc1cccc(-n2cc(Cn3c4ccccc4c4nc5ccccc5nc43)nn2)c1 | viability at 10 µM | 77.5
Fc1ccc2c(c1)c1nc3ccccc3nc1n2Cc1cn(-c2ccccc2)nn1 | viability at 10 µM | 92
Fc1cc(-n2cc(Cn3c4ccccc4c4nc5ccccc5nc43)nn2)ccc1Cl | viability at 10 µM | 93.6
Fc1ccc(-n2cc(Cn3c4ccccc4c4nc5ccccc5nc43)nn2)cc1 | viability at 10 µM | 77.4

Turning to the following compound.
// lookup viability at 10 µM for `Fc1ccc2c(c1)c1nc3ccccc3nc1n2Cc1cn(-c2cccc(Cl)c2)nn1`
77.7

These data points were gathered from ChEMBL document CHEMBL3046073.
